Recorded Reactivity S1-IgG (ELISA OD), one value per entry.
Molecular target: S1-Ig (318-510) (SARS-CoV; human, UniProt P59594 318-510)
Test: ELISA, coated S1-IgG 318-510

binder: 5E4 (antibody, V domains shown) VH: QVHLVQSGAEVKKPGASVKVSCKASGYTFTGYYVHWVRQAPGQGLEWMGWINPNSGGTNYAQKFQGRVTMTRDTSISTAYMELSRLRSDDTAVYFCAGGRYLDYWGQGTLVTVSS VL: DIQMTQSPSSLSASVGDRVTITCRASQGIRNDLGWYQQKPGKAPKRLIYAASSLQSGVPSRFSGSGSGTEFTLTISSLQPEDFATYYCLQYNSYPITFGQGTRLEIK
Reactivity S1-IgG (ELISA OD): 2.27 OD

binder: 1B5 (antibody, V domains shown) VH: QVQLVESGGGVVQPGRSLRLSCAASGFTFSSYGMHWVRQAPGKGLEWVAVIWYDGSNKYYADSVKGRFTISRDNSKNTLYLQMNSLRAEDTAVYYCARGDFYWFDPWGQGTLVTVSS VL: DIQMTQSPSSLSASVGDRVTITCRASQGIRSDLGWYQQRPGKTPKRLIYAASSLQSGVPSRFSGSGSGTEFTLTISSLQPEDFATYYCQQYNSYPLTFGGGTKVEIK
Reactivity S1-IgG (ELISA OD): 0.191 OD

binder: 3H12 (antibody, V domains shown) VH: QVQLQESGPGLVKPSETLSLTCTVSDGSISSFYWSWIRQPPGKGLEWIGYIYYSGSTNYNPSLKSRVTISVDTSKNQFSLKLSSVTAADTAVYYCARDYDILTGYSNYYGMDVWGQGTTVTVSS VL: DIQMTQSPSSLSASVGDRVTITCRASQGIRNDLGWYQQKPGKAPKRLIYAASSLQSGVPSRFSGSGSGTEFTLTISSLQPEDFATYYCLQHNSYPFTFGPGTKLDIK
Reactivity S1-IgG (ELISA OD): 1.3 OD

binder: 6B1 (antibody, V domains shown) VH: QVQLVESGGGVVQPGTSLRLSCAASGFTFSSYGIHWVRQAPGKGLEWVAVIWYDGSNKFHADSVKGRFTISRDNSKNTLYLQMNSLRAEDTAVYYCARDPLGYCSSTSCSYFDYWGQGTLVTVSS VL: DIQMTQSPSSVSASVGDRVTITCRASQGISNWLAWYQQKPGKAPKLLIYAASSLQSGVPSRFSGSGSGTDFTLTISSLQPEDFATYYCQQANNFPLTFGGGTKVEIK
Reactivity S1-IgG (ELISA OD): 2.09 OD

binder: 5D6 (antibody, V domains shown) VH: QVQLVQSGAEVKKPGASVKVSCKASGYTFTSYGISWVRQAPGQGLEWMGWISAYNGNTNYAQKLQGRVTMTTDTSTNTAYMELRSLRSDDTAVYYCAVGRYLDYWGQGTLVTVSS VL: DIQMTQSPSSLSASVGDRVTITCRASQDIRNDLGWYQQKPGKAPKRLIYAASSLQSGVPSRFSGSGSGTEFTLTISSLQPEDFATYYCLQYNSYPLTFGGGTKVEIK
Reactivity S1-IgG (ELISA OD): 2.12 OD

binder: 3C7 (antibody, V domains shown) VH: QVQLVESGGGVVQPGTSLRLSCAASGFTFSSYGIHWVRQAPGKGLEWVAVIWYDGSNKFYADSVKGRFTISRDNSKNTLYLQMNSLRAEDTAVYYCARDPLGYCSSTSCSYFDYWGQGTLVTVSS VL: DIQMTQSPSSVSASVGDRVTITCRASQGISNWLAWYQQKPGKAPKLLIYAASSLQSGVPSRFSGSGSGTDFTLTIRSLQPEDFATYYCQQANNFPLTFGGGTKVEIK
Reactivity S1-IgG (ELISA OD): 2.19 OD
